The following sequences are listed with their measured apparent KD of MS2 coat protein values.
System: MS2 coat protein
Test: apparent KD of MS2 coat protein; designed switch direction (-1 OFF switch, 1 ON switch): -1; higher = weaker reporter binding
Conditions: input ligand: none

| sequenceString | apparent KD of MS2 coat protein, nM |
| --- | --- |
| AAUUAACAUGUAGGAUAUCUGCACGUGUAGUGCAGAGAAGGACAUGAGGAUCACCCAUGUAUAGCGACUUCGGUCGCAAUAAUU [ENG1/2-B3] (Eterna round: R96, puzzle: Exclusion NG 1) | 140 |
| CAGCUGAAUGUGAGGAUAUCUAGAGCCUCGGCUCUAGAGAAGGCACAUGAGGAUCACCCAUGUCUCAACAGCUG [BmEx4/2-A2] (Eterna round: R97, puzzle: Brourd's mod of Exclusion 4) | 35.9 |
| UAAUGUAUAUAGGAUAUCUAGCUGGUAACAGCUAGAGAAGGAUGUACAUGAGGAUCACCCAUGUAAAUCUCAAU [Ex6/12-B2] (Eterna round: R97, puzzle: Exclusion 6) | 20.9 |

---

Test system: MS2 coat protein
Assay: apparent KD of MS2 coat protein; higher = weaker reporter binding
Settings: Eterna round: R107; input ligand: arginine 13.2 mM

| sequenceString | apparent KD of MS2 coat protein (nM) |
| --- | --- |
| CUAUAUAUAGCGGCCGCCACUUACUCAUGAGGUAACAACAUGAGGAUCACCCAUGUUUGAGGAUCAAGGACCGGGCUAUAUAUAG [AstrosSSTryB#4] | 28.1 |
| AGCAACAAGUCGGCCGCCACUCAUUUAACAUGAGGAUCACCCAUGUGAAUAACAUGGUUGUAAUAGAGGACCGGGACAGUUGCAU [JR_SSTryptoB_Sub016] | 205 |
| UUAGAUAUGACAGAUACCAGCGUGUUGUUGAACAUGAGGAUCACCCAUGUAGUGAUCGAGCGCCCUUGGCAGCUGGUGUGUUUGG [7.Q] | 77.6 |
| GACGGGCCUAUUGAUACCAGACCUAGUGACAACAUGAGGAUCACCCAUGUGACGGCAAAAGUCCCUUGGCAGCAAGUAGAAAUAA [theeternabot_sameState_MS2_Theo_B_41] | 14 |
| GAUGAUAUUGCAGAUACCAGACACAUGAGGAUCACCCAUGUCGCUGGGUUACUGGGUCGUGUCCCUUGGCAGCUGCGAUAUCAUC [Belize] | 33.6 |
| GGACUCGUCACGGCCGCCACUGCGGUGGUGUGACAUGAGGAUCACCCAUGUUGUCAUGCGGCCCUUAGGACCGGGUGUCGCGUCC [#1 Exclusion - Tryptophan B Attempt #25 (HarryS)] | 49.7 |

---

Tested on: K4 kissing-loop RNA reporter
Experiment: apparent KD of K4 kissing-loop reporter; higher = weaker reporter binding
Conditions: Eterna round: R107; input ligand: FMN 200 uM

| sequenceString | measureUnit | apparent KD of K4 kissing-loop reporter |
| --- | --- | --- |
| CCUGGCGAGGUAACGUGGAUAUCUCGUCGCAAGGAUAUCUGGAAACAGAGAAGGUGCUACAUUACCGGCAGUGAUGUUGCUGACC | µM | 0.841 |
| UAAUCACUCGAACUGCAAGUACGAGUGGAACGAGGACCGGUACGGCCGCCACUCGAUAACUUGCAGUGAUGUUGCAAGUAAGAAU [(T)''-(K)'-(T)'-(T1)-(T2)-(K1)-(K2)_Design7] | µM | 0.0605 |
| CAUAUAUACACUAACCCGUACGGUAGUAAGCGAGGACCGGUACGGCCGCCACUCGAUCGUUUCGUGUUAGCACCAGUGAUGUUGG [theeternabot_sameState_KL_Trp_A_3] | µM | 0.461 |
| AAGGUUCGUGGAAGGAGCGCCCGUGCGACUCGUUCACUAAGUGAAGUCCGAGUGAUGUUCGGGCAGGUAGGUCGCCACGGGCAAA [Atonenge] | µM | 0.164 |
| AAAAUUGCGGUCGAAAGAACUUCUUGCAUACGAGGACCGGUACGGCCGCCACUCGAGUCAAGUGAUGUUUGAUUUUCUAUUAUUA [JR_ExcTryptoA_Sub013] | µM | 0.135 |
| CCAGAAUAAUGAAGAUGAUAAAUUACUGAAGGAGCGCAUAUAGUUGCAGGUAGGUCGCGGUGAAUAAGUAUAGUGAUGUUAUACC [SSArgA.Ad] | µM | 0.261 |

---

Tested on: K4 kissing-loop RNA reporter;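 note: bound reporter read as fluorescence of individual clusters on recovered sequencing chips by microscopy, with normalized cluster intensities fitted with a binding model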
Test: apparent KD of K4 kissing-loop reporter; higher = weaker reporter binding
Settings: Eterna round: R107; input ligand: FMN 200 uM
Outcome: label 1 for apparent KD of K4 kissing-loop reporter of at least 200 nM; label 0 for anything lower.

| sequenceString | cat |
| --- | --- |
| UGGGAUGUUAAAGGAUAUAGAAAGUGAUAUUAGAAAGUGAGUGAUGUUGAUGUAAGUGAUGAUAUGUUAGAAGGUUAACAAAACG [abcd] | label 1 |
| GGAUAGGACGGAGGAUAUGGUAGUGAUGUUACCAAACUGGUUAAACAUGUCAGAAAACUGGCAUGACCAGAAGGUUGUCCUAUCG [FmnBX 27 G10+U75] | label 0 |
| AAUAAAAUCACGGCCGCCACUGAUUACCAUAUUAGGAGUGAUGUUCCUAUGACUAUAUAAUUUAACAGGACCGGGUGAAUAUUUA [JR_ExcTryptoB_Sub011] | label 0 |
| GAUUAAUAAGAGGAUACCAGUACUAAUAAAGUACAUUAAUAGUAGAGUGAUGUUCUAAAGUACCCUUGGCAGCUUAGAGUAAGUU [#08 K4 Theophylline B Exclusion] | label 0 |
| ACACAGAGUUGCCGAGUGAUGUUCGGCUUACGAGGACCGGUACGGCCGCCACUCGUUACUCUGUGUUUUGGACACCAAGGCGUAG [Edvemaquan] | label 1 |

---

Below, each of the sequences is paired with its reported apparent KD of MS2 coat protein value.
System: MS2 coat protein
Assay: apparent KD of MS2 coat protein; designed switch direction (-1 OFF switch, 1 ON switch): -1; higher = weaker reporter binding
Settings: input ligand: FMN 200 uM

| sequenceString | measureUnit | apparent KD of MS2 coat protein |
| --- | --- | --- |
| CUCUUGUCAGGAUAUCUUACAUAACAAUCGUAGUUACAAUUGGAGAAGGGACAUGAGGAUCACCCAUGUUAGCG [tap-tap-tappy34] (Eterna round: R97, puzzle: Exclusion 4) | nM | 337 |
| GGAAGGCGAGGAUAUACAAUAAAGAAAGAGAAAGACGUGAGACAUGAGGAUCACCCAUGUAGAAGGUGCGGAGA [AK-MS2ROC-r4-exclusion2-13] (Eterna round: R97, puzzle: Exclusion 2) | nM | 37.3 |
| AGUAAGCUAGGAUAUGCUUUGGGAAAGCAUUCCUUCGAUAAACUUGAGGAUCACCCAAGUAGAAGGAGCUUACC [salish99_ex2_r4_002] (Eterna round: R97, puzzle: Exclusion 2) | nM | 13.4 |
| ACUCGCACUGUAAGGAUAUGCAAUUACGAAAGUGAGCAGAAGGUACAUGAGGAUCACCCAUGUGCGAAUCAGUG [Eternabot (Original) Solution 36] (Eterna round: R97, puzzle: Brourd's mod of Exclusion 4) | nM | 18.9 |
| AAUACAAGCUAUUGAUCCCACAUGAGGAUCACCCAUGUAGGUGGCGGUGACACCUCCUUUACGAUAGCUCGUCUUAU [Sensor-V1 #54] (Eterna round: R97, puzzle: Sensor, turn-off variant 1) | nM | 141 |
| GGUUAGAUGGUAGGAUAUCCAUAUCGAGUGACCCUUUCAUAACAUGAGGAUCACCCAUGUCGGUGGGAGAAGGGCCGUACGGCG [salish99_ExNG02_R04_011] (Eterna round: R96, puzzle: Exclusion NG 2) | nM | 35.5 |
| UCAACCAGAGGAUAUGCGCAUAGAUCAGACUUUGUUUCUGAACAUGAGGAUCACCCAUGUAGAAGGCUGUAACC [Ex2 #78] (Eterna round: R97, puzzle: Exclusion 2) | nM | 28.5 |
| CUCCGGCGUGUAGGAUAUGGAUCCGAUUAGGAUCCAGAAGGACAUGAGGAUCACCCAUGUACAUGUAAACAGUCGUCACCGGGC [salish99_ExNG1_r04_206] (Eterna round: R96, puzzle: Exclusion NG 1) | nM | 75.9 |
| ACAUGAGGAUCACCCAUGUAAUCAUGAUGGCUGAUGUAGACUCAGGAUAUGUGUGGCUUUCUAUCACAGAAGGGAGAAGACUGG [Deportation 37 - Jieux - Exclusion NG 3] (Eterna round: R96, puzzle: Exclusion NG 3) | nM | 59.7 |

---

apparent KD of MS2 coat protein for assorted sequences
Test system: MS2 coat protein
Assay: apparent KD of MS2 coat protein; designed switch direction (-1 OFF switch, 1 ON switch): 1; higher = weaker reporter binding
Settings: Eterna round: R95; input ligand: none

| sequenceString | apparent KD of MS2 coat protein |
| --- | --- |
| AGUCCAGCCUGAGCUGGACAGAAGCAUGUACAUGAGGAUCACCCAUGUCAUGUACAAGCUUUUUGCUCGUCUUAAAA [Zipper 46 - 3] (puzzle: Sensor for hsa-mir-208a) | 586 nM |
| CGCUGCGUUUCAUAGGAUAUGUGGUUUUGAACAUGAGGAUCACCCAUGUAGACGUCAAUGGCUCCACAGAAGGGUGACACUAGUG [Aredis] (puzzle: Same State 2) | 908 nM |
| AGCUAUCGAAAACGAUAGCAAAAGCAUGUACAUGAGGAUCACCCAUGUCGUGUACAAGCUUUUUGCUCGUCUUAAAA [Zipper 23 - 5] (puzzle: Sensor for hsa-mir-208a) | 534 nM |
| CGUAGGUAGCUGGAGGAUAUUCGAGUGGUAACAUGAGGAUCACCCAUGUGGAGAGAGGAACAUGAGGAGAAGGCUAGCUGCCUGC [JL-ss2-3.19 JL mod] (puzzle: Same State 2) | 16.7 nM |
| UGGAUCUAGGCUUGCCUGGGUCCAUGUUGACAUGAGGAUCACCCAUGUGUAUUCUAUAAGCUUUUUGUUUGUCAACU (puzzle: Sensor for hsa-mir-208a) | 130 nM |
| ACGCAGCUGGGUGAGGAUAUUGGUGGUACAACAUGAGGAUCACCCAUGUCCGAAGCUCGGACCCUCGAGAAGGCGCCCGGCUGCG [Soinraesar Omei Mod 5] (puzzle: Same State 2) | 62 nM |
| UUUGGGUGGCUGGAGGAUAUCCUGGUUGUUACAUGAGGAUCACCCAUGUGCCGCGCGGUGCGCUGGGAGAAGGCCGGCGGCCGUU (puzzle: Same State 2) | 141 nM |
| UACUAUCUAUCUCAGGAUAUCAUGUCAAAGACAUGAGGAUCACCCAUGUACCAGGAAACUGGUUAUGAGAAGGGAGAUAGAUAGU [Mat - Same State 2 - Mod - D40] (puzzle: Same State 2) | 249 nM |
| GUAUAACAUGAGGAUCACCCAUGUCAUCUAAGUCGAGGAUAUGGGAAUUAAUUAAUUAAACCAGAAGGCGAAAAUU [Mat - Same State 1 - D92] (puzzle: Same State 1) | 492 nM |
| GGUCCAGCCUGAGCUGGACAAAAGCAUGUACAUGAGGAUCACCCAUGUCAUGUACAAGCUUUUUGCUCGUCUAAAGG [Mat - hsa-mir-208a - 92] (puzzle: Sensor for hsa-mir-208a) | 586 nM |
| GUUAAACAUGAGGAUCACCCAUGUCAAUGUAGUCGAGGAUAUGGGCAGCUAUGAGGCGUACUAGAAGGCGAAGAGG [Mat - Same State 1 - Mod of JL - D11] (puzzle: Same State 1) | 334 nM |
| GAGAAUCUAUCUCAGGAUAUCAUGUCAAAGACAUGAGGAUCACCCAUGUACCAGGAAACUGGUUAUGAGAAGGGAGAUAGAUUCG [Mat - Same State 2 - Mod - D36] (puzzle: Same State 2) | 40.1 nM |
| UGGUAACAUGAGGAUCACCCAUGUCAAAUGAAUCGAGGAUAUGGGAAUUAACAACACAAACUAGAAGGCGAAUUUG [Altered State 1-8 - Jieux - Same State 1] (puzzle: Same State 1) | 180 nM |
| UCUUGGUUUUUGCUCGUUUUUUGUGUUGAACAUGAGGAUCACCCAUGUAUUGUACGGUCCAAUUUAGUGGUAAUCCG [JMF 66] (puzzle: Sensor for hsa-mir-208a) | 48.7 nM |
| GCAGAACAUGAGGAUCACCCAUGUCUCAAAUAUUGAGGAUAUGGACACGGUAUAUCCGAACCAGAAGGCGAACUGC [SS1 Teenbexe 18] (puzzle: Same State 1) | 53.3 nM |
| CGGGUACAUGAGGAUCACCCAUGUGGGAGGGAUGCAGGAUAUGUGGGAGGAGGGUAUGAAACAGAAGGGCAAGGAG [JR_SS!_Sub012] (puzzle: Same State 1) | 65.5 nM |
| AGUCCAGCCUGAGCUGGACAAAAGCAUGUACAUGAGGAUCACCCAUGUUCAUGUACAAGCUUUUUGCUCGUCUAAAU [Mat - hsa-mir-208a - Mod of JL - 46] (puzzle: Sensor for hsa-mir-208a) | 682 nM |
| UGUAAACAUGAGGAUCACCCAUGUAAUAAUAUGGGAGGAUAUGGGAAUUAAUUAAUUAAACCAGAAGGCCUAAUGU [Mat - Same State 1 - D88] (puzzle: Same State 1) | 280 nM |
| GGAGAACAUGAGGAUCACCCAUGUAGGCGUUAGCUAGGAUAUGCGGGAAGGAAGAGAGAAGCAGAAGGAGUAGGUA [JR_SS1_Sub031] (puzzle: Same State 1) | 80 nM |
| GUAGAUAUAACGGAGGAUAUUCAAUGAGAGACAUGAGGAUCACCCAUGUGAGAGUGAGAUGAUAGGAAGAAGGCUGAGAGAGAUG [Altered State 2-7 - Jieux - Same State 2] (puzzle: Same State 2) | 64.7 nM |
